Molecular target: UniProt P09917
Sequence (P09917 whole entry): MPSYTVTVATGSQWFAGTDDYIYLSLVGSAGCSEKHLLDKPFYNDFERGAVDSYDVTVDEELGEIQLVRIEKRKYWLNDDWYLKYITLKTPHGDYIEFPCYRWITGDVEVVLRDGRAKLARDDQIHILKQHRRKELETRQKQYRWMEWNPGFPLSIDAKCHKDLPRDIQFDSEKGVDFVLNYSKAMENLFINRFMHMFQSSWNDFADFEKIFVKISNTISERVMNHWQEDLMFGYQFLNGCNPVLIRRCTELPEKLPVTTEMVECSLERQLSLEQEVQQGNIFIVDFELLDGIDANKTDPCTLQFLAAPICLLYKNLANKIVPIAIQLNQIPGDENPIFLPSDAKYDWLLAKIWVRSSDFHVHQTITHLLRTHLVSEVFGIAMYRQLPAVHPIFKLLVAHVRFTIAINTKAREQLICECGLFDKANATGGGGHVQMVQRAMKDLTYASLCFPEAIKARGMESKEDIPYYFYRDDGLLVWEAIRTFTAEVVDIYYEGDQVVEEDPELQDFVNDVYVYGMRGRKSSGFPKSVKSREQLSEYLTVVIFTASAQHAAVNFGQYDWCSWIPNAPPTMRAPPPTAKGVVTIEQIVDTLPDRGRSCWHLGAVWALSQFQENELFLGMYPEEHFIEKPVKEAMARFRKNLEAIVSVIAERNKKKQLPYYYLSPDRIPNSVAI
Assay: Binding affinity to human 5-LOX-linoleic acid complex
pKi: −log10 of the molar value.

>  <compound>
CC(C)CCCC(C)CCOc1ccc(COc2cccc(O)c2C(=O)[O-])cc1.[K+] (stereo unspecified)

>  <tested target>
UniProt P09917

>  <pKi>
3.85

$$$$
